tested on: EV71-luciferase virus; assay: EC50 with EV71-luciferase virus on HEK-293T cells; format: cell-based; details: Enterovirus A, EV71, HEK-293T, 24 h
pEC50: −log10 of the molar value.

[
  {
    "molecule": "Cc1cc(C(=O)NC(Cc2ccc(F)cc2)C(=O)NC(CC2CCCNC2=O)C2OC(=O)N(C(C)C)C2=N)no1 (centres unmarked)",
    "assayed system": "EV71-luciferase virus",
    "pEC50": 7.03
  },
  {
    "molecule": "CCCN1C(=N)C(C(CC2CCCNC2=O)NC(=O)C(Cc2ccc(F)cc2)NC(=O)c2cc(C)on2)OC1=O (centres unmarked)",
    "assayed system": "EV71-luciferase virus",
    "pEC50": 6.52
  }
]
